- TEST_TARGET: JAK2 (Homo sapiens (Human))
- Sequence (O60674 809-1132): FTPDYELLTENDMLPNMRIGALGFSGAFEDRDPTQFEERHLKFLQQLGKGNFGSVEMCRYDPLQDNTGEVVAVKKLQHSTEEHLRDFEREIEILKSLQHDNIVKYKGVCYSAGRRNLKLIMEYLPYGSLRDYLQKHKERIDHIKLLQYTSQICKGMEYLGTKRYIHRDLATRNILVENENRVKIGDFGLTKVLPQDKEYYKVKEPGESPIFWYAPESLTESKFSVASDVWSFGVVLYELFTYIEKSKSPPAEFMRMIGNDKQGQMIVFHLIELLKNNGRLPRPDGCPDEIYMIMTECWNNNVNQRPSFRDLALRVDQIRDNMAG
- ASSAY_PROCEDURE: JAK2 kinase inhibition assay (33P-ATP, Reaction Biology Corp.)
- Assay type: biochemical
- ASSAY_CONTEXT: substrate pEY, 120 min at room temperature, read-out: In Vitro Enzyme IC50 (nM) JAK2
- Description: Compounds of the invention were assayed for their ability to inhibit TYK2 kinase and other JAK kinases. Substrates and kinases used in the assays are identified in Table 2 below.
QUANTITY_NAME: IC50 (nM)

COMPOUND: NC(=O)c1nc(-c2c(F)cccc2F)oc1Nc1ccc(C(=O)NCCO)cc1 [Example 15]
TEST_TARGET: JAK2 (Homo sapiens (Human))
IC50 (nM): 101

I: NC(=O)c1nc(-c2c(F)cccc2F)oc1Nc1ccc(C(=O)N[C@H]2CCCNC2)cc1 [Example 8]
II: NC(=O)c1nc(-c2c(F)cccc2F)oc1Nc1ccc(C(=O)NC2CCNCC2)cc1 [Example 17]
III: CS(=O)(=O)c1ccc(Nc2oc(-c3c(Cl)cccc3Cl)nc2C(N)=O)cc1 [Example 19]
IV: CS(=O)(=O)c1ccc(Nc2oc(-c3c(F)cc(F)cc3F)nc2C(N)=O)cc1 [Example 21]
## Input Order the records, beginning with the lowest IC50 and ending with the highest. # list labels per requested ordering
## Output III, II, I, IV
(III: 87.7 nM, II: 167 nM, I: 268 nM, IV: 412 nM)

* * *

- TEST_TARGET: JAK3 (Homo sapiens (Human))
- Sequence (P52333 781-1124): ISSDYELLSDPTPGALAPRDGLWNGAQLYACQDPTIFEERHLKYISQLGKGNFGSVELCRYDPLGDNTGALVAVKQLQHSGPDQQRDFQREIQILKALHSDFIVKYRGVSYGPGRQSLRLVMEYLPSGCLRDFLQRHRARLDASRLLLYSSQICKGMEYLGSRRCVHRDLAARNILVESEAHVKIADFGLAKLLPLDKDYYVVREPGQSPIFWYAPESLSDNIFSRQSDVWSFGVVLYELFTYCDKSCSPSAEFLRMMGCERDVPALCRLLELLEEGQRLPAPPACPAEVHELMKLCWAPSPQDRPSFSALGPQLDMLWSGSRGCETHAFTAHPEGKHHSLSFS
- ASSAY_PROCEDURE: JAK3 kinase inhibition assay (33P-ATP, Reaction Biology Corp.)
- Assay type: biochemical
- ASSAY_CONTEXT: substrate JAK3tide, 120 min at room temperature, read-out: In Vitro Enzyme IC50 (nM) JAK3
QUANTITY_NAME: IC50 (nM)

Some compounds with recorded IC50:
ITEM_SMILES: CS(=O)(=O)c1ccc(Nc2oc(-c3c(F)cccc3Cl)nc2C(N)=O)cc1
IC50, nM: 165
--
ITEM_SMILES: NC(=O)c1nc(-c2c(F)cccc2F)oc1Nc1ccc(S(N)(=O)=O)cc1
IC50, nM: 419
--
ITEM_SMILES: CNCCNC(=O)c1ccc(Nc2oc(-c3c(F)cccc3F)nc2C(N)=O)cc1
IC50, nM: 397
--
ITEM_SMILES: CS(=O)(=O)c1ccc(Nc2oc(-c3c(F)cc(F)cc3F)nc2C(N)=O)cc1
IC50, nM: 2180
--
ITEM_SMILES: CNCCCNC(=O)c1ccc(Nc2oc(-c3c(F)cccc3F)nc2C(N)=O)cc1
IC50, nM: 388

1: NC(=O)c1nc(-c2c(F)cccc2F)oc1Nc1ccc(C(=O)N[C@H]2CCNC2)cc1
2: NC(=O)c1nc(-c2c(F)cccc2F)oc1Nc1ccc(C(=O)NCCO)cc1
3: CS(=O)(=O)c1ccc(Nc2oc(-c3cc(F)ccc3F)nc2C(N)=O)cc1
## Input Order the records, beginning with the lowest IC50 and ending with the highest. # list labels per requested ordering
## Output 2, 1, 3
(2: 195 nM, 1: 342 nM, 3: 5500 nM)

P: CNS(=O)(=O)c1ccc(Nc2oc(-c3c(F)cccc3F)nc2C(N)=O)cc1
Q: NC(=O)c1nc(-c2c(F)cccc2F)oc1Nc1ccc(C(=O)NCCCO)cc1
R: NC(=O)c1nc(-c2c(F)cccc2F)oc1Nc1ccc(C(=O)N2CCC[C@@H]2CO)cc1
## Input Order the records, beginning with the lowest IC50 and ending with the highest. # list labels per requested ordering
## Output R, Q, P
(R: 126 nM, Q: 199 nM, P: 387 nM)

A: NC(=O)c1nc(-c2c(F)cccc2F)oc1Nc1ccc(C(=O)N2CCOCC2)cc1
B: CN(C)C(=O)c1ccc(Nc2oc(-c3c(F)cccc3F)nc2C(N)=O)cc1
## Input # return whichever of A and B has the smaller IC50 Answer format: the label of the selected item.
## Output B
(B: 219 nM, A: 423 nM)

A: NC(=O)c1nc(-c2c(F)cccc2F)oc1Nc1ccc(C(=O)N[C@@H]2CCCNC2)cc1
B: CS(=O)(=O)c1ccc(Nc2oc(-c3c(Cl)cccc3Cl)nc2C(N)=O)cc1
C: NC(=O)c1nc(-c2c(F)cccc2F)oc1Nc1ccc(C(=O)NC2CCNCC2)cc1
## Input Put the items in sequence by IC50, from largest down. # list labels per requested ordering
## Output A, B, C
